This collection of values is drawn from patent US20240343747A1.

Experiment: Pharmacokinetic evaluation in rats
Assay type: in vivo, rat
Settings: male, plasma, po; rat, p.o. 10 mg/kg
// values below are reported AUC
Value expressed in ng·h/mL; do not type the unit.

I am curious: what AUC value has been reported for [2H]C([2H])([2H])NC(=O)c1nnc(NC(=O)C2CC2)cc1Nc1cccc(-c2cc(P(=O)(C3CC3)C3CC3)n(C)n2)c1OC [Compound B41] ?
6900

* * *

Experiment: Plasma protein binding test, human
Type: in vitro ADME
Conditions: human plasma
recorded endpoint: fraction unbound at 4 h, 2 μM
No unit in the answer, please; the number alone is enough.

Observe how each entry below is paired with its result.
{"columns": ["compound", "fraction unbound at 4 h, 2 μM"],
 "data": [
  ["CCC(=O)c1cnc(NC(=O)C2CC2)cc1Nc1cccc(-c2cc(P(C)(C)=O)n(C)n2)c1OC [Compound B2]", 0.048],
  ["[2H]C([2H])([2H])NC(=O)c1nnc(NC(=O)C2CC2)cc1Nc1cccc(-c2cc(P(=O)(C3CC3)C3CC3)n(C)n2)c1OC [Compound B41]", 0.084]
]}

// next entry
Look at this compound and give its reported fraction unbound at 4 h, 2 μM. [2H]C([2H])([2H])n1nc(-c2cccc(Nc3cc(NC(=O)C4CC4)ncc3C(=O)CC)c2OC)cc1P(C)(C)=O [Compound B22]
0.051

* * *

# maps each entry to its clearance
Assay: Pharmacokinetic evaluation in mice
Type: in vivo
Conditions: male, mouse, plasma, iv; mice, i.v. 2 mg/kg
Provide the reading as a plain figure in mL/min/kg.

{"columns": ["compound", "units of measure", "reported measurement"],
 "data": [
  ["[2H]C([2H])([2H])n1nc(-c2cccc(Nc3cc(NC(=O)C4CC4)ncc3C(=O)CC)c2OC)cc1P(C)(C)=O [Compound B22]", "mL/min/kg", 25.4],
  ["CCC(=O)c1cnc(NC(=O)C2CC2)cc1Nc1cccc(-c2cc(P(=O)(C3CC3)C3CC3)n(C)n2)c1OC [Compound B37]", "mL/min/kg", 15.5],
  ["CCC(=O)c1cnc(NC(=O)C2CC2)cc1Nc1cccc(-c2cc(P(C)(C)=O)n(C)n2)c1OC [Compound B2]", "mL/min/kg", 17.2]
]}

Lab note: next compound to report on.
Which clearance is listed for [2H]C([2H])([2H])NC(=O)c1nnc(NC(=O)C2CC2)cc1Nc1cccc(-c2cc(P(=O)(C3CC3)C3CC3)n(C)n2)c1OC [Compound B41] ?
12.7

* * *

Test: Plasma protein binding test, mouse
Assay type: in vitro ADME
recorded endpoint: fraction unbound at 4 h, 2 μM
Give your answer as a number; write no unit.

Solved cases below.
{"columns": ["compound", "fraction unbound at 4 h, 2 μM"],
 "data": [
  ["[2H]C([2H])([2H])n1nc(-c2cccc(Nc3cc(NC(=O)C4CC4)ncc3C(=O)CC)c2OC)cc1P(C)(C)=O [Compound B22]", 0.03],
  ["[2H]C([2H])([2H])NC(=O)c1nnc(NC(=O)C2CC2)cc1Nc1cccc(-c2cc(P(=O)(C3CC3)C3CC3)n(C)n2)c1OC [Compound B41]", 0.018]
]}

// next item, fraction unbound at 4 h, 2 μM requested
Field request: fraction unbound at 4 h, 2 μM | item: CCC(=O)c1cnc(NC(=O)C2CC2)cc1Nc1cccc(-c2cc(P(C)(C)=O)n(C)n2)c1OC [Compound B2]
0.067
